meta.source: patent US20200405852A1

- Test target: T1, activated human complement C1s (human, UniProt P09871 16-688)
- T1 construct: also called aC1s; active C1s
- T1 sequence: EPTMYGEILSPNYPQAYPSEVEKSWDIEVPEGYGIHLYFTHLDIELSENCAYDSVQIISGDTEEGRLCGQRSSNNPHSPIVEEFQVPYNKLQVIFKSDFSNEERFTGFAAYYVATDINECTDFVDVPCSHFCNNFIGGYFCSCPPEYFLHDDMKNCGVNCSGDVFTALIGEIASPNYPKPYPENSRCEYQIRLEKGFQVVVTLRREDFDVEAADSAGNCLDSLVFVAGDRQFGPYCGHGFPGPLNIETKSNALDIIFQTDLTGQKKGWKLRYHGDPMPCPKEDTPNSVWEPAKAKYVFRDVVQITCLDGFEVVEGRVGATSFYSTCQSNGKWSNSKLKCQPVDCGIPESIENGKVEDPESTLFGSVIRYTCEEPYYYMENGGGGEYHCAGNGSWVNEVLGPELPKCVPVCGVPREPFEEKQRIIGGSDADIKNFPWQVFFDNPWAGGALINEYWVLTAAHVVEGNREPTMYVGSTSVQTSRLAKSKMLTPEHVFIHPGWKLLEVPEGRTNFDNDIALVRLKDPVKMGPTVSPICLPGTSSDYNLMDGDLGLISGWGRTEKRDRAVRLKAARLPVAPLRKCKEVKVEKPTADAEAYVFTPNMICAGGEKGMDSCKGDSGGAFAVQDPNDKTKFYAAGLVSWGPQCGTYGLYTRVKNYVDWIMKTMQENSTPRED
- Run description: competition binding to active C1s; competitor 50 pM biotinylated TNT005 (Biot-005)
pIC50: −log10 of the molar value.
Measured endpoint: pIC50

1) TNT005.001 (antibody, V domains shown, Unlabelled parental antibody; also called parental TNT005 (not biotinylated)) VH: EVQLQQSGAELVRPGASVKLSCTASGFNIKDDYIHWVKQRPEQGLEWIGRIDPADGHTKYAPKFQVKATITADTSSNTAYLQLSSLTSEDTAVYYCARYGYGREVFDYWGQGTTLTVSS VL: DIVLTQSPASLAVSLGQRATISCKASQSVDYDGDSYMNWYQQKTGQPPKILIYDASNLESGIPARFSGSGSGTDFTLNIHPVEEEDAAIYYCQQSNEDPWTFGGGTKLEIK :: 10.40
2) humanized TNT005 variant VH variant 2+Vk variant 5 (antibody, V domains shown, also called VH variant 2 + VL variant 5) VH: EVQLVQSGAEVKKPGASVKLSCTASGFNIKDDYIHWVKQAPGQGLEWIGRIDPADGHTKYAPKFQVKATITADTSTNTAYLELSSLRSEDTAVYYCARYGYGREVFDYWGQGTTVTVSS VL: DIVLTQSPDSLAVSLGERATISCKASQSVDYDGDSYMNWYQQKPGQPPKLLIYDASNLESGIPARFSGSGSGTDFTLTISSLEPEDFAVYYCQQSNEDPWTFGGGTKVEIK :: 9.78
3) humanized TNT005 variant VH variant 5+Vk variant 1 (antibody, V domains shown, also called VH variant 5 + VL variant 1) VH: QVQLVQSGAEVKKPGASVKVSCAASGFNIKDDYIHWVRQAPGQGLEWIGRIDPADGHTKYAPKFQVKVTITADTSTSTAYMELSSLRSEDTAVYYCARYGYGREVFDYWGQGTTVTVSS VL: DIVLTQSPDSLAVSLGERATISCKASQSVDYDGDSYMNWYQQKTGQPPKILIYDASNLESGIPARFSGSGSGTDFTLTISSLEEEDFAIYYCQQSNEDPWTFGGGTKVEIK :: 10.35
